measurement-description: Solubility in water
Format: physicochemical
test-context: lyophilized product, read-out: dissolved readily in water to give a solution
result-type: solubility (mg/mL)
Please give a number only; it is taken to be in mg/mL.

Read off the recorded solubility for O=C([O-])C1=C(C[n+]2cccc(C(=O)O)c2)CSC2C(NC(=O)[C@H](NC(=O)c3cnc4cccnc4c3O)c3ccccc3)C(=O)N12 (stereo partly shown)
250

====

Test system: Ent. cloacae (3), Pr. vulgaris (1), Pr. morganii (1), S. marcescen (1)
measurement-description: In vitro MIC, serial two-fold agar dilution, primary evaluation Gn-II (Ent. cloacae, Pr. vulgaris, Pr. morganii, S. marcescens)
Type: cell-based
test-context: CBPC = 100%; geometric mean of MICs; Mueller-Hinton agar
Protocol: Minimun inhibitory concentrations (MIC) were determined by the serial two-fold agar dilution method using Steers' apparatus on Mueller-Hinton agar plate against 31 test organisms for the primary screening and also against 64 strains of Pseudomonas aeruginosa for the secondary evaluation. The results are shown in Table 1 in terms of relative activity with respect to the standard compound CBPC (carbenicillin) which was set at 100%. […]
Quick list: In vitro relative activity, primary evaluation Gn-II (6) per entry.
Express the result in % but write the number alone.

Below are worked cases with known answers.
{"columns": ["compound", "obs-value"],
 "data": [
  ["O=C([O-])C1=C(C[n+]2ccccc2C(=O)O)CSC2C(NC(=O)[C@H](NC(=O)c3cnc4cccnc4c3O)c3ccc(O)cc3)C(=O)N12 (stereo partly drawn)", 4],
  ["O=C(O)CCc1ccc[n+](CC2=C(C(=O)[O-])N3C(=O)C(NC(=O)[C@H](NC(=O)c4cnc5cccnc5c4O)c4ccc(O)cc4)C3SC2)c1 (stereo partly drawn)", 18],
  ["O=C([O-])C1=C(C[n+]2ccc(C(=O)O)c(C(=O)O)c2)CSC2C(NC(=O)[C@H](NC(=O)c3cnc4cccnc4c3O)c3ccc(O)cc3)C(=O)N12 (stereo partly drawn)", 11],
  ["O=C(O)Cc1ccc[n+](CC2=C(C(=O)[O-])N3C(=O)C(NC(=O)[C@H](NC(=O)c4cnc5cccnc5c4O)c4ccc(O)cc4)C3SC2)c1 (stereo partly drawn)", 33],
  ["O=C([O-])C1=C(C[n+]2cccc(C(=O)O)c2)CSC2C(NC(=O)[C@H](NC(=O)c3cnc4cccnc4c3O)c3ccccc3)C(=O)N12 (stereo partly drawn)", 11]
]}

Write down In vitro relative activity, primary evaluation Gn-II (6) measured for item O=C(O)CSc1ccc[n+](CC2=C(C(=O)[O-])N3C(=O)C(NC(=O)[C@H](NC(=O)c4cnc5cccnc5c4O)c4ccc(O)c(Cl)c4)C3SC2)c1 (stereo partly drawn)
25

====

measurement-description: Antibiotic blood levels in mice following intramuscular administration (paper disc-agar diffusion, Escherichia coli NIHJ as assay organism)
Assay type: in vivo
test-context: mouse, im, I.M., 20 mg./kg., read-out: Blood level, Peak Concentration
Cmax values, listed per item
Please reply with the bare figure in ng/mL and do not write the unit itself.

Example results:
{"columns": ["molecule", "result-type", "obs-value"],
 "data": [
  ["O=C([O-])C1=C(C[n+]2cccc(C(=O)O)c2)CSC2C(NC(=O)[C@H](NC(=O)c3cnc4cccnc4c3O)c3ccccc3)C(=O)N12 (stereo partly drawn) [BB-S606]", "Cmax", 11000],
  ["NC(=O)c1cc[n+](CC2=C(C(=O)[O-])N3C(=O)C(NC(=O)[C@H](NC(=O)c4cnc5cccnc5c4O)c4ccc(O)cc4)C3SC2)cc1C(=O)O (stereo partly drawn) [BB-S592]", "Cmax", 12000]
]}

Turning to the following molecule.
Check the records and state Cmax for O=C(O)CSc1cc[n+](CC2=C(C(=O)[O-])N3C(=O)C(NC(=O)[C@H](NC(=O)c4cnc5cccnc5c4O)c4ccc(O)c(Cl)c4)C3SC2)cc1 (stereo partly drawn) [BB-S621]
10000
